experiment: Phase 1 single-dose study, plasma PK of solriamfetol by level of renal function; type: in vivo, human; conditions: both sexes, human, plasma, oral, 75 mg, Group 5.1 ESRD without hemodialysis; single 75-mg dose; n=3; read-out: t½, mean ± SD (%CV) (converted)
MEASURED_ENDPOINT: half-life (h)
Answer with a number only, understood to be in h.

Asked: Answer with the recorded half-life for the compound listed here: NC(=O)OC[C@H](N)Cc1ccccc1 [solriamfetol, [R]-2-amino-3-phenylpropylcarbamate]
Given back: 100

====

assay: Phase 1 single-dose study, plasma PK of solriamfetol by level of renal function; format: in vivo, human; conditions: both sexes, human, plasma, oral, 75 mg, Group 1 normal renal function; single 75-mg dose; read-out: Vd/F, mean ± SD (%CV)
MEASURED_ENDPOINT: Vd/F (L)
Answer with a number only, understood to be in L.

Asked: Answer with the recorded Vd/F for the compound listed here: NC(=O)OC[C@H](N)Cc1ccccc1 [solriamfetol, [R]-2-amino-3-phenylpropylcarbamate]
Given back: 164

====

assay: Phase 1 single-dose study, plasma PK of solriamfetol by level of renal function; assay type: in vivo, human; details: both sexes, human, plasma, oral, 75 mg, Group 5.2 ESRD with hemodialysis; single 75-mg dose; n=6; read-out: Vd/F, mean ± SD (%CV)
MEASURED_ENDPOINT: Vd/F (L)
Answer with a number only, understood to be in L.

Asked: Answer with the recorded Vd/F for the compound listed here: NC(=O)OC[C@H](N)Cc1ccccc1 [solriamfetol, [R]-2-amino-3-phenylpropylcarbamate]
Given back: 231

====

assay: Phase 1 single-dose study, plasma PK of solriamfetol by level of renal function; assay type: in vivo, human; details: both sexes, human, plasma, oral, 75 mg, Group 1 normal renal function; single 75-mg dose; over 48 h; read-out: AUCt, mean ± SD (%CV)
MEASURED_ENDPOINT: AUC(0-t) (ng·h/mL)
Answer with a number only, understood to be in ng·h/mL.

Asked: Answer with the recorded AUC(0-t) for the compound listed here: NC(=O)OC[C@H](N)Cc1ccccc1 [solriamfetol, [R]-2-amino-3-phenylpropylcarbamate]
Given back: 4850

====

assay: Phase 1 single-dose study, plasma PK of solriamfetol by level of renal function; format: in vivo, human; conditions: both sexes, human, plasma, oral, 75 mg, Group 1 normal renal function; single 75-mg dose; read-out: AUC∞, geometric LS mean
MEASURED_ENDPOINT: AUC(0-inf) (ng·h/mL)
Answer with a number only, understood to be in ng·h/mL.

Asked: Answer with the recorded AUC(0-inf) for the molecule listed here: NC(=O)OC[C@H](N)Cc1ccccc1 [solriamfetol, [R]-2-amino-3-phenylpropylcarbamate]
Given back: 4360

====

test: Phase 1 single-dose study, plasma PK of solriamfetol by level of renal function; format: in vivo, human; details: both sexes, human, plasma, oral, 75 mg, Group 2 mild renal impairment; single 75-mg dose; read-out: Cmax, geometric LS mean
MEASURED_ENDPOINT: Cmax (ng/mL)
Answer with a number only, understood to be in ng/mL.

Asked: Answer with the recorded Cmax for the compound listed here: NC(=O)OC[C@H](N)Cc1ccccc1 [solriamfetol, [R]-2-amino-3-phenylpropylcarbamate]
Given back: 510

====

test: Phase 1 single-dose study, plasma PK of solriamfetol by level of renal function; assay type: in vivo, human; settings: both sexes, human, plasma, oral, 75 mg, Group 5.2 ESRD with hemodialysis; single 75-mg dose; over 72 hours; read-out: AUCt, geometric LS mean (converted)
MEASURED_ENDPOINT: AUC(0-t) (µg·h/mL)
Answer with a number only, understood to be in µg·h/mL.

Asked: Answer with the recorded AUC(0-t) for the compound listed here: NC(=O)OC[C@H](N)Cc1ccccc1 [solriamfetol, [R]-2-amino-3-phenylpropylcarbamate]
Given back: 18.7
